experiment: Fraction unbound in human plasma
Assay type: ADME, cell-free
value-type: fraction unbound

fraction unbound for CN[C@@H]1CCN(c2nc(N)nc3c2oc2ncc(Cl)cc23)C1 ?
0.43

###

experiment: Metabolic stability in human liver microsomes assessed as half life
Format: ADME, Microsome
Task for the reader: assign each of the following molecules its reported half-life.

half-life for CN1CCN(c2ncnc3c2oc2ccccc23)CC1 ?
< 5 min

half-life for CN[C@@H]1CCN(c2nc(N)nc3c2oc2ncc(Cl)cc23)C1 ?
> 180 min

half-life for CN1CCN(c2ncnc3c2oc2ccc(Cl)cc23)CC1 ?
< 5 min

###

experiment: Cmax in rat at 10 mg/kg, po
Type: ADME, organism-based
Parameters: dose 10 mg/kg, route oral
assay-setup: in vivo
value-type: Cmax

Cmax for CN[C@@H]1CCN(c2nc(N)nc3c2oc2ncc(Cl)cc23)C1 ?
1200 nM
